Tested on: MDA-MB-468 breast
Experiment: NCI tumour cell line growth inhibition, 48 h
recorded_metric: GI50

In [3]: df
Out[3]:
                                   compound  recorded_metric  recorded_result
0  COc1cc(C2c3cc4c(cc3OC(N3CCOCC3)C2C)OCO4)cc(OC)c1OC (stereo not given)             GI50          4150 nM
1  CN1CCN(c2ccc([N+](=O)[O-])c3no[n+]([O-])c23)CC1             GI50           203 nM
2  CC(C)(C)n1cc(-c2ccnc(NCCCNS(=O)(=O)c3ccc(Cl)cc3)c2)c(-c2cccc(O)c2)n1             GI50          1800 nM
3  Cc1cc(Cl)ccc1Nc1nc(C(F)(F)F)ccc1C(=O)N/N=C/c1ccc(N(C)C)cc1             GI50           442 nM
4  CN(C)CCN1C(=O)c2cccc3c(-c4ccc5ncn(C6CCCCC6)c5c4)ccc(c23)C1=O             GI50          1740 nM

====

// reported TGI for each item listed
Tested on: MDA-MB-468 breast
Assay: NCI tumour cell line growth inhibition, 48 h

compound	target_desc	scale_unit	censor_symbol	TGI
COc1ccc(Cn2cc3c(c2-c2ccccc2)CCc2cncnc2-3)cc1	MDA-MB-468 breast	µM	=	11
C=C1C(=O)O[C@H]2[C@H]1CC/C(COC(=O)NCc1cccc(OC)c1)=C\CC[C@@]1(C)O[C@@H]21	MDA-MB-468 breast	µM	=	3.84
COc1cc2c(cc1-c1c(C)noc1C)ncc1[nH]c(=O)n([C@H](C)c3ccccn3)c12	MDA-MB-468 breast	µM	>	36.8
C[C@@H]1CCC2[C@@H](C)[C@H](OC(=O)CCC(=O)NCCNC(=O)Cc3cc(=O)oc4cc(N(C)C)ccc34)O[C@@H]3O[C@]4(C)CC[C@@H]1C23OO4 (stereo not given in full)	MDA-MB-468 breast	µM	=	59.4
CCCCc1oc2ccccc2c1C(=O)c1cc(I)c(OCCN(CC)CC)c(I)c1	MDA-MB-468 breast	µM	=	3.12

====

Tested on: MDA-MB-468 breast
Experiment: NCI tumour cell line growth inhibition, 48 h
recorded_metric: GI50

>>> df
                                 cpd_smiles  recorded_result
0  COc1ccc(-c2cc3nccn3c(Nc3ncccc3C(N)=O)n2)cc1OC      > 100000 nM
1             Cc1[nH]ccc2cc3nc4ccccc4c3cc12          1910 nM
2  CCN1CCN(c2nc(C)cc(N(CCCNc3ccnc4cc(Cl)ccc34)Cc3ccco3)n2)CC1          2200 nM

The origin of these recorded values is PubChem BioAssay (NCI).
